Parameter IC50: see the listing below.
# Tested on: TYK2 pseudokinase (JH2); IFNα-stimulated HEK-Blue IFNα/β cells
# method summary: HEK-Blue IFNα/β reporter assay (STAT1-inducible SEAP) for profiling TYK2 pseudokinase (JH2) inhibition
# Format: cell-based
# experimental parameters: 1 ng/mL human recombinant IFNα, SEAP readout, read-out: IFNα (TYK2 inhibitory activity, IC50)

smi: [2H]C([2H])([2H])NC(=O)c1nnc(NC(=O)C2CC2)cc1Nc1cccc2c1N(C([2H])([2H])[2H])Cc1cn(C)nc1-2
IC50: < 30 nM

smi: [2H]C([2H])([2H])NC(=O)c1cnc(NC(=O)C2COC2)cc1Nc1cccc2c1N(C)Cc1cn(C)nc1-2
IC50: 30 to 300 nM

smi: [2H]C([2H])([2H])NC(=O)c1cnc(Nc2ccc(F)cn2)cc1Nc1cccc2c1OCc1cn(C)nc1-2
IC50: 300 to 1000 nM

smi: CNC(=O)c1nnc(Nc2ccc(F)cn2)cc1Nc1cccc2c1OCc1cn(C)nc1-2
IC50: 30 to 300 nM

smi: [2H]C([2H])([2H])NC(=O)c1nnc(NC(=O)C2CC2)cc1Nc1nccc2c1N(C)C([2H])([2H])c1cc(C)nn1-2
IC50: < 30 nM

smi: [2H]C([2H])([2H])NC(=O)c1nnc(NC(=O)C2CC2)cc1Nc1cccc2c1N(C)Cc1cn(C(C)C)nc1-2
IC50: 30 to 300 nM

smi: [2H]C([2H])([2H])NC(=O)c1nnc(NC(=O)C2CC2)cc1Nc1cccc2c1N(C)Cc1cc(C)nn1-2
IC50: < 30 nM

====

# Test system: TYK2 pseudokinase (JH2); IL-23-stimulated HEK-Blue IL-23 cells
# method summary: HEK-Blue IL-23 reporter assay (STAT3-inducible SEAP) for profiling TYK2 pseudokinase (JH2) inhibition
# Format: cell-based
# experimental parameters: 10 ng/mL human recombinant IL-23, SEAP readout, read-out: IL23 (TYK2 inhibitory activity, IC50)
# Method: Example B-1: HEK-Blue™ IL-23 and IFNα/β Reporter Assays for Profiling TYK2 Pseudokinase (JH2) Inhibition HEK-Blue™ IL-23 and IFNα/β cells with a stably-integrated cytokine receptor and STAT3 or STAT1 express STAT-inducible secreted embryonic alkaline phosphatase (SEAP) reporter gene upon cytokine stimulation. […] SEAP induction is measured using the QUANTI Blue™ Solution (InvivoGen) according to the manufacturer's instructions.
pIC50: −log10 of the molar value.
Reported pIC50 by item:

compound: [2H]C([2H])([2H])NC(=O)c1cnc(NC(=O)C2CC2)cc1Nc1cccc2c1N(C)Cc1c[nH]nc1-2
pIC50: > 7.52

compound: [2H]C([2H])([2H])NC(=O)c1nnc(NC(=O)C2CC2)cc1Nc1cccc2c1N(C)Cc1cn(C([2H])([2H])[2H])nc1-2
pIC50: > 7.52

compound: [2H]C([2H])([2H])NC(=O)c1nnc(NC(=O)NC)cc1Nc1cccc2c1N(C)C([2H])([2H])c1cn(C)nc1-2
pIC50: > 7.52

compound: [2H]C([2H])([2H])NC(=O)c1cnc(NC(=O)C2CC2)cc1Nc1cccc2c1N(C)Cc1cn(C3COC3)nc1-2
pIC50: > 7.52

compound: [2H]C([2H])([2H])NC(=O)c1cnc(NC(=O)C2CC2)cc1Nc1cccc2c1N(C)[C@@H](C)c1cn(C)nc1-2 (single isomer, unassigned)
pIC50: > 7.52

compound: CNC(=O)c1nnc(Nc2ccc(F)cn2)cc1Nc1cccc2c1OCc1cn(C)nc1-2
pIC50: 6.52 to 7.52

compound: [2H]C([2H])([2H])NC(=O)c1nnc(NC(=O)C2CC2)cc1Nc1cccc2c1N(C)Cc1cc(C(F)(F)F)nn1-2
pIC50: 6.52 to 7.52

compound: CNC(=O)c1nnc(NC(=O)C2CC2)cc1Nc1cccc2c1OCc1cn(C)nc1-2
pIC50: 6.52 to 7.52

====

# system name: JAK1 kinase domain (JH1) (Homo sapiens, UniProt P23458)
# Construct: recombinant purified His or GST-tagged catalytic domain for each enzyme
# Sequence (P23458 875-1153 limits assumed): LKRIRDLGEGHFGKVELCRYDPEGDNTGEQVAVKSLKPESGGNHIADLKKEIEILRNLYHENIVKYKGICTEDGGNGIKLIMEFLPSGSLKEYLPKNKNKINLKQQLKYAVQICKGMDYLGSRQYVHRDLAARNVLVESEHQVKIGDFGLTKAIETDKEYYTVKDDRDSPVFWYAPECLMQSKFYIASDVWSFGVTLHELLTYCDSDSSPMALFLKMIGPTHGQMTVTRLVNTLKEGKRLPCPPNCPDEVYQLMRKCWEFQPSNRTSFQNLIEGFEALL
# method summary: HTRF-based selectivity assay, JAK1 catalytic domain
# experimental parameters: 21.43 μM ATP, read-out: JAK-JHI (IC50)
pIC50: −log10 of the molar value.

smi: CNC(=O)c1nnc(Nc2ccc(F)cn2)cc1Nc1cccc2c1N(C)Cc1cn(C)nc1-2
pIC50: < 6.00
//
smi: CNC(=O)c1nnc(NC(=O)C2CC2)cc1Nc1cccc2c1OCc1cn(C)nc1-2
pIC50: < 6.00
//
smi: CNC(=O)c1nnc(NC(=O)C2CC2)cc1Nc1cccc2c1OCc1cnn(C)c1-2
pIC50: < 6.00
//
smi: [2H]C([2H])([2H])NC(=O)c1cnc(NC(=O)C2CC2)cc1Nc1cccc2c1OCc1cn(C)nc1-2
pIC50: < 6.00
//
smi: [2H]C([2H])([2H])NC(=O)c1cnc(NC(=O)C2CC2)cc1Nc1cccc2c1N(C)C([2H])([2H])c1cn(C)nc1-2
pIC50: < 6.00
//
smi: [2H]C([2H])([2H])NC(=O)c1cnc(NC(=O)NC)cc1Nc1cccc2c1N(C)Cc1cn(C)nc1-2
pIC50: < 6.00
//
smi: [2H]C([2H])([2H])NC(=O)c1nnc(Nc2ccc(F)cn2)cc1Nc1cccc2c1OCc1cn(C)nc1-2
pIC50: < 6.00

====

# pIC50 per record follows
# system name: JAK3 kinase domain (JH1) (Homo sapiens, UniProt P52333)
# Construct: recombinant purified His or GST-tagged catalytic domain for each enzyme
# Sequence (P52333 822-1111 limits assumed): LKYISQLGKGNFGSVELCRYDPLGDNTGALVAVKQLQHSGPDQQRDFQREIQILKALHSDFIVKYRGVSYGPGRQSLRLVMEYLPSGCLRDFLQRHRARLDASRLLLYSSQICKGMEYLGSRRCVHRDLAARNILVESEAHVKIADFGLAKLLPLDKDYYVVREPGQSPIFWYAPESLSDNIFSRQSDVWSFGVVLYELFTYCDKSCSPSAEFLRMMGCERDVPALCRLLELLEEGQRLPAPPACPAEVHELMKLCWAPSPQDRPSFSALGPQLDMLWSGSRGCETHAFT
# method summary: HTRF-based selectivity assay, JAK3 catalytic domain
# experimental parameters: 2.12 μM ATP
# Protocol: Example B-2: HTRF-Based Selectivity Assay The ability of compounds to inhibit the activity of JAK1, JAK2, JAK3 and TYK2 is measured using a recombinant purified His or GST-tagged catalytic domain for each enzyme (JAK1, JAK2 and TYK2 are generated in-house; JAK3 was purchased from Carna biosciences, Cat #08-046) in an HTRF format biochemical assay. The reactions employs a commercial peptide substrate from Cisbio (Cat #62TK0PEC). […]
pIC50: −log10 of the molar value.

molecule: CNC(=O)c1nnc(Nc2ccc(F)cn2)cc1Nc1cccc2c1N(C)Cc1cn(C)nc1-2 [Compound 12]
pIC50: < 6.00
--
molecule: [2H]C([2H])([2H])NC(=O)c1cnc(NC(=O)[C@H]2C[C@H]2F)cc1Nc1cccc2c1N(C)Cc1cn(C)nc1-2 (single isomer, unassigned) [Compound 32]
pIC50: < 6.00
--
molecule: [2H]C([2H])([2H])NC(=O)c1nnc(NC(=O)C2CC2)cc1Nc1nccc2c1N(C)[C@H](C)c1cn(C)nc1-2 (single isomer, unassigned) [Compound 70]
pIC50: 6.00 to 6.52
--
molecule: [2H]C([2H])([2H])NC(=O)c1cnc(NC(=O)C2(O)CC2)cc1Nc1cccc2c1N(C)Cc1cn(C)nc1-2 [Compound 21]
pIC50: < 6.00
--
molecule: CNC(=O)c1nnc(Nc2ccc(F)cn2)cc1Nc1cccc2c1OCc1cnn(C)c1-2 [Compound 49]
pIC50: < 6.00
--
molecule: [2H]C([2H])([2H])NC(=O)c1nnc(NC(=O)C2CC2)cc1Nc1nccc2c1N(C)Cc1cn(C)nc1-2 [Compound 65]
pIC50: < 6.00

====

Items are presented alongside their recorded IC50.
# Tested on: TYK2 pseudokinase (JH2); IFNα-stimulated HEK-Blue IFNα/β cells
# method summary: HEK-Blue IFNα/β reporter assay (STAT1-inducible SEAP) for profiling TYK2 pseudokinase (JH2) inhibition
# Format: cell-based
# experimental parameters: 1 ng/mL human recombinant IFNα, SEAP readout, read-out: IFNα (TYK2 inhibitory activity, IC50)

compound: CNC(=O)c1nnc(NC(=O)C2CC2)cc1Nc1cccc2c1OCc1cn(C3COC3)nc1-2 [Compound 4]
IC50: > 1000 nM

compound: [2H]C([2H])([2H])NC(=O)c1cnc(NC(=O)C2CC2)cc1Nc1cccc2c1N(C([2H])([2H])[2H])Cc1cn(C)nc1-2 [Compound 26]
IC50: < 30 nM

compound: [2H]C([2H])([2H])NC(=O)c1nnc(NC(=O)C2CC2)cc1Nc1nccc2c1N(C([2H])([2H])[2H])Cc1cn(C)nc1-2 [Compound 67]
IC50: < 30 nM

compound: [2H]C([2H])([2H])NC(=O)c1nnc(NC(=O)NC)cc1Nc1cccc2c1N(C)C([2H])([2H])c1cn(C)nc1-2 [Compound 33]
IC50: < 30 nM

====

# system name: TYK2 kinase domain (JH1) (Homo sapiens)
# Construct: recombinant purified His or GST-tagged catalytic domain for each enzyme; made in house
# Sequence (P29597 897-1176 limits assumed): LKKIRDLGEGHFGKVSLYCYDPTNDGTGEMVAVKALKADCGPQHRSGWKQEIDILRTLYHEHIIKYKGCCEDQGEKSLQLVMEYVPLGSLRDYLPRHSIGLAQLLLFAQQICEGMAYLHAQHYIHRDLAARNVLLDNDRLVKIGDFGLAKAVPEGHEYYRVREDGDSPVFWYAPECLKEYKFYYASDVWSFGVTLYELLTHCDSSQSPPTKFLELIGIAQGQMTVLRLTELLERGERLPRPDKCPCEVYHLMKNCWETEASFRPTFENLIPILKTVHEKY
# method summary: HTRF-based selectivity assay, TYK2 catalytic domain
# Type: biochemical
# experimental parameters: 20 μM ATP
This section presents molecules with their documented IC50 values.

smi: [2H]C([2H])([2H])NC(=O)c1nnc(NC(=O)C2CC2)cc1Nc1cccc2c1N(C)Cc1cn(C([2H])([2H])[2H])nc1-2
IC50: > 1 µM
//
smi: Cn1cc2c(n1)-c1cccc(Nc3cc(Nc4ccc(F)cn4)nnc3C(N)=O)c1OC2
IC50: > 1 µM
//
smi: [2H]C([2H])([2H])NC(=O)c1nnc(NC(=O)C2CC2)cc1Nc1nccc2c1N(C)Cc1cc(C)nn1-2
IC50: > 1 µM
